Tested On: D-aspartate oxidase 3 (Caenorhabditis elegans)
Sequence (O01739 whole entry): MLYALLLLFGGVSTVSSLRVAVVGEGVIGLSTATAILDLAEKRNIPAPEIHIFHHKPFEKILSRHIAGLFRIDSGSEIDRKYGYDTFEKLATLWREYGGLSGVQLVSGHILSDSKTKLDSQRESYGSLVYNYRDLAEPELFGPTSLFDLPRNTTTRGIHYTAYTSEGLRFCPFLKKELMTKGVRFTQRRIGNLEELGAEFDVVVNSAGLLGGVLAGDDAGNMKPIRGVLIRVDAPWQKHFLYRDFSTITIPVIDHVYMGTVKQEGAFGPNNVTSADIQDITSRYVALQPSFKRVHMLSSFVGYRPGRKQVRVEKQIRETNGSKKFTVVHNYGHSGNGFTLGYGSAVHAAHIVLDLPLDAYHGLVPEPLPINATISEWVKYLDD
Measurement Description: Inhibition of Caenorhabditis elegans DDO3 incubated for 10 mins
pEC50: −log10 of the molar value.
Value Kind: pEC50

>>> assay_value("Oc1ccc(-c2cnco2)cc1")
"< 4.00"

We now examine a further compound.
The reported pEC50 of the compound `COc1ccc(-c2cnco2)cc1` was < 4.00

====

What MIC was measured for each of the following?
System: Caenorhabditis elegans
Measurement Description: Growth inhibition of adult Caenorhabditis elegans measured on day 3 by microscopy
Type: functional
Condition Summary: 72 h

>>> assay_value("COc1ccccc1-c1cnco1")
"> 100 µM"
>>> assay_value("COc1ccc(-c2cocn2)cc1")
"> 100 µM"

The reported MIC of the compound `CC(=O)Oc1ccc(-c2cnco2)cc1` was > 100 µM
